Test: Cell Viability - Jurkat (AID 426);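 note: potency is the fitted concentration of half-maximal effect; cells exposed to compound for 40 hours at 37 °C before ATP read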
Conditions: qHTS
Description: NIH Chemical Genomics Center [NCGC] NIH Molecular Libraries Screening Centers Network [MLSCN] National Institutes of Environmental Health Sciences [NIEHS] National Toxicology Program [NTP] We have developed a 1536-well cell-based assay for quantitative high throughput screening (qHTS) against a number of cell lines to determine in vitro cytotoxicity of small molecules. […] 7. Detection; Luminescence; Viewlux plate reader […]
Results filed as inconclusive are left out. Activity calls are given as the source filed them.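 Rule for the calls: active = dose-dependent loss of cell ATP signal giving a full or clear fitted curve, ranked by lower potency value; inconclusive = weak partial curve or response only at the top dose; inactive = no loss of viability signal.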
Assign Potency to each entry below.

Example entries and their recorded answers appear below.
{"compound-string": "CCCCCCCCCCCCOS(=O)(=O)O", "val": "> 92 µM (inactive)"}
{"compound-string": "C[C@]12C[C@H](O)[C@H]3[C@@H](CCC4=CC(=O)CC[C@@]43C)[C@@H]1CC[C@@H]2C(=O)CO", "val": "> 92 µM (inactive)"}

Batch request: Potency per item, same order as input.
1. Cc1cc2nc3c(=O)[nH]c(=O)nc-3n(C[C@H](O)[C@H](O)[C@H](O)CO)c2cc1C
2. CC1(C)[C@@H]2CC[C@@]1(C)C(=O)C2
3. CC12CCC(CC1)C(C)(C)O2
4. Nc1ccc(S(=O)(=O)Nc2nccs2)cc1
5. NCCNCCNCCNCCN
6. [Cl][In]([Cl])[Cl]

Solution:
1. > 92 µM (inactive)
2. > 92 µM (inactive)
3. > 92 µM (inactive)
4. > 92 µM (inactive)
5. > 92 µM (inactive)
6. > 92 µM (inactive)

Exercise: Tell us which Potency value is on record for `O=C1c2c(O)cccc2Cc2cccc(O)c21`
Solution: > 92 µM (inactive)

// data source = PubChem BioAssay (NCATS)
